Data credit: paper PMC10669220

Field: Cell viability percentage, A549. Provide a value for each of the compounds that follow.
tested on: lung cancer (A549) cell line; test: MTT cytotoxicity assay, A549; conditions: Conc. 1 (µM per method); Table S3

Request: Look up Cell viability percentage, A549 for this compound: CC1=[N+]([O-])C(c2ccccc2)Nc2c(I)cc(Br)cc21 (stereo not drawn)
Result: 84,0927%

Request: Entry under review: CC1=[N+]([O-])C(c2ccc(F)cc2)Nc2ccc(Br)cc21 (stereo not drawn) . Reported Cell viability percentage, A549?
Result: 69,0066%

Request: Find the recorded Cell viability percentage, A549 belonging to COc1ccc(C2Nc3ccc(I)cc3C(C)=[N+]2[O-])cc1 (stereo not drawn) and report it.
Result: 87,7714%

Request: Query (compound): COc1ccc(C2Nc3c(Br)cc(I)cc3C(C)=[N+]2[O-])cc1 (stereo not drawn) ; field requested: Cell viability percentage, A549
Result: 45,0433%

Request: Given the compound COc1ccc(C2Nc3c(I)cc(Br)cc3C(C)=[N+]2[O-])cc1 (stereo not drawn) , what is its reported Cell viability percentage, A549?
Result: 89,6276%

Request: Item under review: CC1=[N+]([O-])C(c2ccc(Cl)cc2)Nc2c(I)cc(Br)cc21 (stereo not drawn) . Reported Cell viability percentage, A549?
Result: 78,5578%

Request: # get_value(readout='Cell viability percentage, A549', item= CC1=[N+]([O-])C(c2ccc(Cl)cc2)Nc2ccc(Br)cc21 (stereo not drawn) )
Result: 73,4391%

Request: Cell viability percentage, A549 lookup needed for CC1=[N+]([O-])C(c2ccc(F)cc2)Nc2ccc(I)cc21 (stereo not drawn) , thanks.
Result: 82,3715%

Request: Can you look up the measured Cell viability percentage, A549 of CC1=[N+]([O-])C(c2ccccc2)Nc2ccc(Br)cc21 (stereo not drawn) for me?
Result: 66,8354%

----------
Exercise: for every item that follows, state its recorded melting point.

Request: Data request, read-out melting point, for CC1=[N+]([O-])C(c2ccccc2)Nc2ccc(Br)cc21 (centres unmarked) [Compound 3a]
Result: 158 to 160 °C

Request: Entry under review: CC1=[N+]([O-])C(c2ccc(F)cc2)Nc2c(Br)cc(I)cc21 (centres unmarked) [Compound 3n] . Reported melting point?
Result: 125 to 127 °C

Request: Query: melting point; subject: CC1=[N+]([O-])C(c2ccccc2)Nc2c(I)cc(Br)cc21 (centres unmarked) [Compound 3i]
Result: 162 to 164 °C

Request: Param item = CC1=[N+]([O-])C(c2ccc(F)cc2)Nc2ccc(I)cc21 (centres unmarked) [Compound 3f] ; retrieve measured melting point.
Result: 180 to 182 °C

Request: Item under review: CC1=[N+]([O-])C(c2ccccc2)Nc2c(Br)cc(I)cc21 (centres unmarked) [Compound 3m] . Reported melting point?
Result: 180 to 181 °C

Request: What does the data say about its melting point? Entry: CC1=[N+]([O-])C(c2ccccc2)Nc2ccc(I)cc21 (centres unmarked) [Compound 3e]
Result: 184 to 186 °C

Request: Endpoint output: melting point of CC1=[N+]([O-])C(c2ccc(F)cc2)Nc2ccc(Br)cc21 (centres unmarked) [Compound 3b] . Value?
Result: 183 to 185 °C

Request: Item under review: CC1=[N+]([O-])C(c2ccc(Cl)cc2)Nc2ccc(Br)cc21 (centres unmarked) [Compound 3c] . Reported melting point?
Result: 171 to 173 °C

Request: Find the recorded melting point belonging to CC1=[N+]([O-])C(c2ccc(Cl)cc2)Nc2c(Br)cc(I)cc21 (centres unmarked) [Compound 3o] and report it.
Result: 140 to 142 °C

Request: Query (compound): CC1=[N+]([O-])C(c2ccc(F)cc2)Nc2c(I)cc(Br)cc21 (centres unmarked) [Compound 3j] ; field requested: melting point
Result: 170 to 173 °C

Request: What value of melting point has been recorded for this entry: COc1ccc(C2Nc3c(Br)cc(I)cc3C(C)=[N+]2[O-])cc1 (centres unmarked) [Compound 3p]
Result: 173 to 174 °C

Request: Give the measured melting point of COc1ccc(C2Nc3ccc(Br)cc3C(C)=[N+]2[O-])cc1 (centres unmarked) [Compound 3d] .
Result: 194 to 196 °C

Request: Look up melting point for this compound: COc1ccc(C2Nc3c(I)cc(Br)cc3C(C)=[N+]2[O-])cc1 (centres unmarked) [Compound 3l]
Result: 153 to 155 °C

Request: What does the record list as melting point for COc1ccc(C2Nc3ccc(I)cc3C(C)=[N+]2[O-])cc1 (centres unmarked) [Compound 3h] ?
Result: 176 to 179 °C
